- System: human colorectal HCT-116 cancer cell line
- TEST NAME: In vitro cytotoxic screening (MTT assay), HCT-116
- Format: cell-based
- RUN PARAMETERS: 50 µM; average ± standard deviation
Record form. Attribute: Percentage cytotoxicity on HCT-116. Fill in for each entry.
Answers are plain numbers, in %.

Worked cases, Percentage cytotoxicity on HCT-116 given:
1. CC(=O)OC[C@@H](OC(C)=O)[C@@H](OC(C)=O)[C@H](OC(C)=O)c1nc2nc3sc4c(c3c(=O)n2[nH]1)CCC4 [Compound 12d] | 0.0
2. CC(=O)OC[C@@H](OC(C)=O)[C@H](OC(C)=O)[C@H](OC(C)=O)[C@@H](OC(C)=O)c1nc2nc3sc4c(c3c(=O)n2[nH]1)CCC4 [Compound 12b] | 0.0
3. O=c1c2c3c(sc2nc2nc([C@@H](O)[C@H](O)[C@H](O)CO)[nH]n12)CCC3 [Compound 11d] | 0.0
4. COc1ccc(-c2nn3c(=O)c4c5c(sc4nc3n2[C@@H]2O[C@H](COC(C)=O)[C@@H](OC(C)=O)[C@H](OC(C)=O)[C@H]2OC(C)=O)CCC5)cc1 | 0.0
5. CCOC(=O)Cc1nn2c(=O)c3c4c(sc3nc2[nH]1)CCC4 | 0.0

Batch: Percentage cytotoxicity on HCT-116 for all items listed.
1. CC(=O)OC[C@H]1O[C@@H](n2cnn3c(=O)c4c5c(sc4nc23)CCC5)[C@H](OC(C)=O)[C@@H](OC(C)=O)[C@@H]1OC(C)=O
2. Cc1nn2c(=O)c3c4c(sc3nc2[nH]1)CCC4
3. O=c1c2c3c(sc2nc2[nH]c(-c4ccc([N+](=O)[O-])cc4)nn12)CCC3 [Compound 10c]
4. O=c1c2c3c(sc2nc2[nH]c(-c4ccc(Br)cc4)nn12)CCC3 [Compound 10b]
5. O=c1c2c3c(sc2nc2[nH]c(-c4c5ccccc5cc5ccccc45)nn12)CCC3 [Compound 10e]
6. COc1ccc(-c2nn3c(=O)c4c5c(sc4nc3[nH]2)CCC5)cc1 [Compound 10d]

Found:
1. 0.0
2. 0.0
3. 39.4
4. 15.0
5. 34.9
6. 0.0

Cited source for all entries: paper PMC10934261
